- Test system: SNB-19 CNS
- method: NCI-60 one-dose screen, 48 h (100 = growth as untreated, 0 = no growth, -100 = all killed)
- condition.label: 10 µM unless noted
About 83,000 compounds went through this panel and 20% of them were active in at least one assay; those are over-represented in the sample as a whole. Active and inactive are the calls of the source. How the source made its calls: active means growth percent below 10; inactive means the rest.
growth values by entry
reported.property: growth

• N#C/C(=C\c1ccc(-c2ccccc2)o1)c1nc(-c2ccco2)cs1 = 94.1% (inactive)
• COC(=O)[C@]12CC[C@@H](C)[C@H](C)[C@@H]1C1=CC(=O)[C@@H]3[C@@]4(C)C[C@@H](OC(C)=O)[C@H](OC(C)=O)[C@@](C)(COC(C)=O)[C@@H]4C(=O)C[C@@]3(C)[C@]1(C)CC2 = 57% (inactive)
• N#Cc1c(-c2ccco2)nc2c(c(-c3ccccc3)nn2-c2ccccc2)c1-c1ccc(O)cc1 = 95.9% (inactive)
• CC1(n2nnnc2N2CCCN(c3ncccc3N)CC2)CCC1 = 98.6% (inactive)
• COC(=O)[C@]12CC[C@@H](C)[C@H](C)[C@@H]1C1=CC[C@@H]3[C@@]4(C)C=C(O)C(=O)C(C)=C4CC[C@@]3(C)[C@]1(C)CC2 = 59.9% (inactive)
• COc1cccc(NC(=O)c2sc3nc4c(cc3c2N)C(=O)CCC4)c1 = 41.6% (inactive)
• Cn1cc(-c2csc(-c3cn(CCN)c4ccc(Br)cc34)n2)c2cccnc21 = 74.1% (inactive)
• O=C(O)c1cccc2c1Cc1cc([N+](=O)[O-])ccc1-2 = 108% (inactive)
• COc1ccc(C2NC(=O)Nc3ccccc32)c(OC)c1 (stereo not drawn) = 99.1% (inactive)
• CC[C@]12C=CCN3CC[C@@]4(c5cc([C@H]6CCC(=O)N6)c(OC)cc5N(C)[C@H]4[C@@](O)(C(=O)OC)[C@@H]1OC(C)=O)[C@@H]32 = 105% [2.5 µM] (inactive)
• Brc1ccc(Cn2nnnc2-c2ccn(-c3ccccc3)n2)cc1 = 78.9% (inactive)
• Nc1c(C(=O)Nc2cccc(Cl)c2)sc2ncc(Cl)cc12 = 105% (inactive)
• O=C(N/N=C/c1ccccc1SSc1ccccc1/C=N/NC(=O)c1ccccc1)c1ccccc1 = 44.8% (inactive)
• COc1ccc(-n2c(/C=C/c3ccc(O)c(OC)c3)cc(/C=C/c3ccc(O)c(OC)c3)nc2=O)cc1 = 69.9% (inactive)
• COc1cc2[nH]c(C(=O)c3cc(OC)c(OC)c(OC)c3)c(N)c2cc1C#CCO = 26.3% (inactive)
• O=[N+]([O-])c1cc(S(=O)(=O)c2ccc(F)c([N+](=O)[O-])c2)ccc1F = 106% (inactive)
• CN1CCN(CCOc2ccc(-c3cnc4c(-c5ccccc5F)cnn4c3)cc2)CC1 = 69.1% (inactive)
• COc1ccc2[nH]cc(-c3nc(-c4c[nH]c5ncccc45)cs3)c2c1 = 77.4% (inactive)
